measured target: SMARCA4-HiBiT (Homo sapiens)
Construct: SMARCA4-HiBiT knock-in Hela monoclonal cell (CS3023226); host or cells: HeLa monoclonal knock-in line (CRISPR HiBiT knock-in at the endogenous locus, heterozygous)
assay procedure: SMARCA4 HiBiT degradation assay in HeLa cells
Type: cell-based
test settings: 18 hours incubation, read-out: HeLa-HiBit-SM4 DC50
property measured: DC50

Q: Lab note: need DC50 for O=C1CCC(N2Cc3cc(C4CCN(C5CCN(CCCN6CCN7c8cc(-c9ccccc9O)nnc8NC[C@H]7C6)C5)CC4)ccc3C2=O)C(=O)N1 (stereo partly drawn) [Example 208] on SMARCA4-HiBiT (Homo sapiens), anyone have it?
Result: < 0.01 µM

Q: Lab note: need DC50 for O=C1CCC(N2C(=O)c3ccc(N4CC[C@H](CN5CCN(C(=O)N6CCN7c8cc(-c9ccccc9O)nnc8NC[C@H]7C6)CC5)[C@@H](F)C4)cc3C2=O)C(=O)N1 (stereo partly drawn) [Example 206] on SMARCA4-HiBiT (Homo sapiens), anyone have it?
Result: 0.01 to 0.1 µM

// next entry
Q: Lab note: need DC50 for O=C1CCC(N2Cc3ccc(N4CCN(CCN5CCC(CN6CCN7c8cc(-c9ccccc9O)nnc8NC[C@H]7C6)CC5)CC4)cc3C2=O)C(=O)N1 (stereo partly drawn) [Example 119] on SMARCA4-HiBiT (Homo sapiens), anyone have it?
Result: < 0.01 µM

====

measured target: SMARCA4-HiBiT (Homo sapiens, UniProt P51532)
Construct: SMARCA4-HiBiT knock-in Hela monoclonal cell (CS3023226); host or cells: HeLa monoclonal knock-in line (CRISPR HiBiT knock-in at the endogenous locus, heterozygous)
Sequence (P51532 whole entry): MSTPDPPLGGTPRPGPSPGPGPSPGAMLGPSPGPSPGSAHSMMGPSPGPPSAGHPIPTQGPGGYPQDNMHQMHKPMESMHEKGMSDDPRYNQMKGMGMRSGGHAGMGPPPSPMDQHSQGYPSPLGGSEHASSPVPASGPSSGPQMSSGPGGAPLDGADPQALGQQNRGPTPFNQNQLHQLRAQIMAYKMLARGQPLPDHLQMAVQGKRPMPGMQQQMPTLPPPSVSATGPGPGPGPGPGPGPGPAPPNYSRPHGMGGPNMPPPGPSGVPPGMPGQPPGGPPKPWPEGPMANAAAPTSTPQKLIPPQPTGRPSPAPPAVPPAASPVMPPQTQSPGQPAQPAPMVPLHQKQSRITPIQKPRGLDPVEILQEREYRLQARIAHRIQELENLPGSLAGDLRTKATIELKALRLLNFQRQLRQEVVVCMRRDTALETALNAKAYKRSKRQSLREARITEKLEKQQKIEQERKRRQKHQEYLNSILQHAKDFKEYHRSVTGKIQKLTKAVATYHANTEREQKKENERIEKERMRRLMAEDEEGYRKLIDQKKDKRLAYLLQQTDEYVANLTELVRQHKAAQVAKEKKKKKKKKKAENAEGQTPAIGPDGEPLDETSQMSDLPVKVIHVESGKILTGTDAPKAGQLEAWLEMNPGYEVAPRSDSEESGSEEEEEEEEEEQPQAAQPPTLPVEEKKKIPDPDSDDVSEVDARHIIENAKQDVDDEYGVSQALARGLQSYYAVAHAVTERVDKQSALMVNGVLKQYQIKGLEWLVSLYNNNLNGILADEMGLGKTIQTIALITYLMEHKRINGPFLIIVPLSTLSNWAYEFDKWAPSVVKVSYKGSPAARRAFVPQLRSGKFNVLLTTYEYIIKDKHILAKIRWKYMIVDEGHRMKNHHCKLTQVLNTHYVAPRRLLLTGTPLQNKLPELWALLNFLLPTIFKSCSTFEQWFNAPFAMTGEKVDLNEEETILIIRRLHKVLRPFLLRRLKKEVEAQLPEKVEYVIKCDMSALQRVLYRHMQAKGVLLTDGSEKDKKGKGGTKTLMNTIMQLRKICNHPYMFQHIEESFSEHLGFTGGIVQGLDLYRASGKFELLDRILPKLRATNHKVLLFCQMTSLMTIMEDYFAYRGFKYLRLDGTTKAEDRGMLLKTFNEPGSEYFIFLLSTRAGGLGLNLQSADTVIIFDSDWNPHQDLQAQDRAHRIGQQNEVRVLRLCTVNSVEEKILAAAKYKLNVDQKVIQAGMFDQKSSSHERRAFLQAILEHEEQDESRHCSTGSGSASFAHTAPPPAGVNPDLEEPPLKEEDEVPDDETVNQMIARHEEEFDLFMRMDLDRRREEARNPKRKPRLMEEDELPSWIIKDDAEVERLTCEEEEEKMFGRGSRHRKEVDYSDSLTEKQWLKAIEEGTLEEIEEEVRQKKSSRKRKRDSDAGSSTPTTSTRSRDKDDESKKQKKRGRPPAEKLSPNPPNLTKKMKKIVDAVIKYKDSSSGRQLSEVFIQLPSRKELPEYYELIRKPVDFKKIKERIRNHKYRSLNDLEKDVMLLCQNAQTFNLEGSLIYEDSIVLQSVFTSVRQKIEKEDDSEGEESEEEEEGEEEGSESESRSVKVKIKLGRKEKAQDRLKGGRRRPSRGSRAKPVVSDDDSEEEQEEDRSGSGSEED
assay procedure: SMARCA4 HiBiT degradation assay in HeLa cells
Assay type: cell-based
test settings: HeLa, 18 hours incubation, read-out: HeLa-HiBit-SM4 Dmax (%)
property measured: Dmax

Q: Give its Dmax value. Item: O=C1CCC(N2C(=O)c3ccc(N4CCC(NC5CCN(C(=O)N6CCN7c8cc(-c9ccccc9O)nnc8NC[C@H]7C6)CC5)CC4)cc3C2=O)C(=O)N1 (stereo partly drawn)
Result: 50 to 75%

Q: Give its Dmax value. Item: C[C@H]1CN2c3cc(-c4ccccc4O)nnc3NC[C@H]2CN1CC1CCN(CC2CCN(c3ccc4c(c3)C(=O)N(C3CCC(=O)NC3=O)C4=O)CC2)CC1 (stereo partly drawn)
Result: 75 to 85%

Q: Give its Dmax value. Item: CC(C1CCN(c2ccc3c(c2)C(=O)N(C2CCC(=O)NC2=O)C3=O)CC1)N1CCC(CCCN2CCN3c4cc(-c5ccccc5O)nnc4NC[C@H]3C2)CC1 (stereo partly drawn)
Result: > 85%

Q: Give its Dmax value. Item: O=C1CCC(N2C(=O)c3ccc(N4CCC(CN5C[C@@H]6[C@H](C5)[C@@H]6CN5CCN6c7cc(-c8ccccc8O)nnc7NC[C@H]6C5)CC4)cc3C2=O)C(=O)N1 (stereo partly drawn)
Result: 50 to 75%

Q: Give its Dmax value. Item: O=C1CCC(N2C(=O)c3ccc(N4CCC(CN5CC6(CC(CN7CCN8c9cc(-c%10ccccc%10O)nnc9NC[C@H]8C7)C6)C5)CC4)cc3C2=O)C(=O)N1 (stereo partly drawn)
Result: > 85%

// next entry
Q: Give its Dmax value. Item: O=C1CCC(N2Cc3ccc(N4CC(CN5CCN(C(=O)N6CCN7c8cc(-c9ccccc9O)nnc8NC[C@H]7C6)CC5)C4)cc3C2=O)C(=O)N1 (stereo partly drawn)
Result: 75 to 85%
